- system.under.test: Geranylgeranyl transferase type I (Homo sapiens) (UniProt P49354+P53609)
- assay.text: Ratio of Kcat to Km for recombinant GGTase1 (unknown origin) using dansyl-GCVLL as co-substrate assessed as protein prenylation by spectrofluorometric method relative to GGPP
Rule: Y for Ratio not less than 0.5, N for anything less.

Example results:
• CCCCCCCCCCC/C(C)=C/COP(=O)(O)OP(=O)(O)O = N
• CC(C)=CCCCCCCCCC/C(C)=C/COP(=O)(O)OP(=O)(O)O = N

query: Confirm if Ratio reported for the molecule CCCCCCCCCCCC/C(C)=C/COP(=O)(O)OP(=O)(O)O is 0.5 or above.
result: N

query: CCCCCCCCCCCCC/C(C)=C/COP(=O)(O)OP(=O)(O)O , same question.
result: N
